Cited source: patent US20260285853A1

test system: MYB mRNA; test: Gene panel canonical junction qPCR assay, decrease in CJ mRNA, Table 3; type: cell-based; conditions: decrease in canonical junction (CJ) mRNA, gene panel qPCR, Table 3
pIC50: −log10 of the molar value. Structures can show the parent of a compound that is named as a salt.
measurementKind: pIC50

The following compounds have reported results that may help.
Entry COc1cc2nn(C)cc2cc1NC(=O)c1ccc(N2CCCC(OC3CNC3)C2)c2cn(C)nc12 (stereo not shown) , pIC50 reported as < 5.00

Noted for CN[C@H]1CCN(c2c(OC)cc(C(=O)Nc3cc(F)c4nc(C)cn4c3)c3nn(C)cc23)C1 : its pIC50 reads < 5.00

For CNC1CCN(c2ccc(C(=O)Nc3cc4cn(C)nc4cc3OC)c3nn(C)cc23)C1 (stereo not shown) the compound record lists pIC50 as 6.00 to 7.00

***
Record COc1cc2nn(C)cc2cc1NC(=O)c1ccc(N2CCC3NCCC3C2)c2cn(C)nc12 (stereo not shown) . Reported pIC50: 6.00 to 7.00

GET /value?item= Cc1cn2cc(NC(=O)c3c(O)cc(N4CC[C@@H](NC5CC5)C4)c4cn(C)nc34)cc(F)c2n1 &field=pIC50 returns > 7.00

Summary for this compound, CN[C@H]1CCN(c2ccc(C(=O)Nc3cc(F)c4nc(C)cn4c3)c3nn(C)nc23)C1 : pIC50 is 6.00 to 7.00

Record Cc1cn2cc(NC(=O)c3ccc(N4CCC(N[C@@H]5C[C@@H]5O)CC4)c4cn(C)nc34)cc(F)c2n1 [Compound 371, hydrochloride] , field pIC50: 6.00 to 7.00
